- experimental_protocol: NCI Yeast Anticancer Drug Screen. Data for the sgs1 mgt1 strain (AID 161);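 further: 0% = growth of cultures given vehicle only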
- condition_set: S. cerevisiae sgs1 mgt1 strain, at 50.0 µM, active compounds read high
About 79,000 compounds went through this panel and 15% of them were active in at least one assay; those are over-represented in the sample as a whole.
Measured growth inhibition values are reported for all entries that follow.
metric: growth inhibition (%)

>  <compound>
C[C@H]1C(=O)CCC2[C@]3(C)CC4OC(=O)C5(CC[C@@]6(C)CCC(C)(C)CC6C45C)C3CC[C@@]21C (some centres undefined)

>  <unit_tag>
%

>  <recorded_value>
-25.9

$$$$
>  <compound>
COC(OC)C1(c2ccccc2)NC(=O)N(Cc2ccccc2)C1=O (centres undefined)

>  <unit_tag>
%

>  <recorded_value>
-1.3

$$$$
>  <compound>
CCN(CC)Cc1cc(N=Nc2ccc3c(c2)c2ccccc2n3CC)c2ccccc2c1O

>  <unit_tag>
%

>  <recorded_value>
11.2

$$$$
>  <compound>
C=C(C)COC1CCCCO1 (centres undefined)

>  <unit_tag>
%

>  <recorded_value>
-36.7

$$$$
>  <compound>
S=C(SCc1c(Cl)cccc1Cl)N1CCSCC1

>  <unit_tag>
%

>  <recorded_value>
23.1

$$$$
>  <compound>
O=C(c1ccc2c(c1)no[n+]2[O-])N(CCO)CCO

>  <unit_tag>
%

>  <recorded_value>
47.1

$$$$
>  <compound>
CCCCCC(C#N)CCC(C)=O (centres undefined)

>  <unit_tag>
%

>  <recorded_value>
-9.3

$$$$
>  <compound>
COC(=O)C1OC1C(=O)OC (centres undefined)

>  <unit_tag>
%

>  <recorded_value>
1.15

$$$$
>  <compound>
Cc1ccc(C(=O)/C=C/c2ccc(N(C)C)cc2)cc1

>  <unit_tag>
%

>  <recorded_value>
34.8

$$$$
>  <compound>
CCCCC(CC)(CO)CCC (centres undefined)

>  <unit_tag>
%

>  <recorded_value>
-13.7

$$$$
>  <compound>
CS(=O)(=O)Nc1ccccc1-c1nc2ccccc2c(=O)o1

>  <unit_tag>
%

>  <recorded_value>
27.2

$$$$
>  <compound>
COC1OC(CCl)C(Cl)C(Cl)C1O (centres undefined)

>  <unit_tag>
%

>  <recorded_value>
4.55

$$$$
>  <compound>
CCOC(=O)c1c(N2CCCC2)ncn(Cc2ccccc2)c1=S

>  <unit_tag>
%

>  <recorded_value>
3.9

$$$$
>  <compound>
CCCCOC(=O)C1CC2CC1C1OC21 (centres undefined)

>  <unit_tag>
%

>  <recorded_value>
-23.7

$$$$
>  <compound>
CC(=O)Oc1cc(N(C)C)ccc1SC(Cl)(Cl)Cl

>  <unit_tag>
%

>  <recorded_value>
-12.1

$$$$
>  <compound>
CCCCCCC(/C=C/c1ccc(Cl)c(Cl)c1)=N\Nc1ccccc1

>  <unit_tag>
%

>  <recorded_value>
14.8

$$$$
>  <compound>
O=C(CCC(=O)C1CCC/C1=N/O)Nc1ccc(Cl)cc1 (centres undefined)

>  <unit_tag>
%

>  <recorded_value>
7.4

$$$$
>  <compound>
Cc1ccc2nc(-c3ccc4nc(-c5ccc(N=Nc6ccc(-c7nc8ccc(-c9nc%10ccc(C)c(S(=O)(=O)O)c%10s9)cc8s7)cc6)cc5)sc4c3)sc2c1S(=O)(=O)O

>  <unit_tag>
%

>  <recorded_value>
21.4

$$$$
>  <compound>
CC(=O)c1ccc(OCc2ccccc2)cc1OCc1ccccc1

>  <unit_tag>
%

>  <recorded_value>
-9.8

$$$$
>  <compound>
COC1=CC(=O)C(CC=C(C)C)=CC1=O

>  <unit_tag>
%

>  <recorded_value>
-1.2

$$$$
>  <compound>
CC(O)CCC(C)O (centres undefined)

>  <unit_tag>
%

>  <recorded_value>
-4.5

$$$$
>  <compound>
CN(C)c1ccc2c(SCC(=O)OCC(=O)C3(O)CCC4C5CCC6=CC(=O)C=CC6(C)C5C(O)CC43C)c3ccc(N(C)C)cc3nc2c1 (centres undefined)

>  <unit_tag>
%

>  <recorded_value>
57.2

$$$$
>  <compound>
CC1c2ccccc2-c2ccccc21

>  <unit_tag>
%

>  <recorded_value>
7.25

$$$$
>  <compound>
CC(O)C(c1ccc(N(C)C)cc1)c1ccc(N(C)C)cc1 (centres undefined)

>  <unit_tag>
%

>  <recorded_value>
2.35

$$$$
>  <compound>
CCOC(=O)c1cc(C=O)nc2c(Cl)cc(Cl)cc12

>  <unit_tag>
%

>  <recorded_value>
22.4

$$$$
>  <compound>
CCCCC(CCCC)(C(=O)NC)c1ccccc1

>  <unit_tag>
%

>  <recorded_value>
-4.5

$$$$
>  <compound>
O=[N+]([O-])c1nc(-[n+]2ccccc2)[n-]c1Br

>  <unit_tag>
%

>  <recorded_value>
-1.9

$$$$
>  <compound>
CCOC(=O)CCC(C)(C#N)c1ccccc1 (centres undefined)

>  <unit_tag>
%

>  <recorded_value>
2.5

$$$$
>  <compound>
COc1ccc(-c2c(C#N)c(S)n(NS(=O)(=O)c3ccccc3)c(=O)c2C#N)cc1

>  <unit_tag>
%

>  <recorded_value>
43.7

$$$$
>  <compound>
CCOC(=O)C(NC(N)=O)C(=O)OCC

>  <unit_tag>
%

>  <recorded_value>
0.95

$$$$
>  <compound>
COc1ccc(C(c2c(O)c3ccccc3n(C)c2=O)c2c(O)c3ccccc3n(C)c2=O)cc1

>  <unit_tag>
%

>  <recorded_value>
-25.9

$$$$
>  <compound>
O=c1ccc2ccc(O)c(O)c2o1

>  <unit_tag>
%

>  <recorded_value>
12.9

$$$$
>  <compound>
Cc1cc2c(=O)cc(-c3ccc(F)cc3)oc2c(C(=O)O)c1C

>  <unit_tag>
%

>  <recorded_value>
-5.6

$$$$
>  <compound>
CCC(=O)c1ccc(OC(C)=O)cc1

>  <unit_tag>
%

>  <recorded_value>
-4.85

$$$$

From: PubChem BioAssay (NCI)
